experiment: protein stability index of a GFP-peptide fusion (GPS, HEK-293T) (PSI 1-6); higher = more stable; details: treatment: DMSO; c terminus: a fixed tail appended;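 note: 24-mer peptide tiles fused after GFP, lentivirally expressed, FACS-sorted into six equal bins by GFP/DsRed ratio, decoded by Illumina sequencing, PSI is the read-weighted mean bin number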
Reported protein stability index values are given for each entry in this list.
// keep it numeric: no unit symbol after the value

Consider the reported protein stability index for these sequences:
# residues, protein stability index
rows = [
    ("EEHGLQQERPRPEPGRLGSSSPAS [PXN]", 5.25),
    ("IWFRVPYSIISLLLKDKVRERIQI [PTPN9]", 2.56),
    ("PLPFPGPFPAGPLAVAGGPRKTAA [ESRRA]", 4.43),
    ("GGSELGGWSLGRWTHDGIDINNNF [CPXM2]", 3.06),
    ("GIFKIEDSAQVARLWGIRKNRPAM [SPDEF]", 2.71),
    ("CHEEVYAGSHQYPGRGVYLLKFDN [ACBD3]", 2),
    ("KEGGQAGSGQRVPALEEAPDSHQK [ELOA2]", 5.32),
    ("EAKAVGLISHVLEQNQEGDAAYRK [AUH]", 5.22),
]

Alright, here's another sequence for you.
Bench note: what protein stability index did IDKNTQLTLQVYREQADSCREQLD [TRIM14] show?
4.58
